Reference for the values: patent US10752587B2

Each entry below lists one item and its recorded Emax value.
study-target: glutathione-S-transferase (GST) tagged LXRbeta LBD (ligand binding domain) (Homo sapiens)
Construct: purchased Invitrogen pv4658.pps
Sequence (P55055 222-460 limits assumed): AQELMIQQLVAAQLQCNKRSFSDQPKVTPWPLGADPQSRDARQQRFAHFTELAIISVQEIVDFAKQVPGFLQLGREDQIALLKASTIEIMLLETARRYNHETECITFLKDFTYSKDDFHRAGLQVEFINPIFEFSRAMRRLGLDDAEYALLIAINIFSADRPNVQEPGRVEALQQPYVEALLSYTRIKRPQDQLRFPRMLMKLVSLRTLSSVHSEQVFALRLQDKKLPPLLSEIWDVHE
measurement-notes: LanthaScreen TR-FRET Liver X Receptor Coactivator Assay, co-activator recruitment to LXRbeta LBD
Type: biochemical
measurement-parameters: efficacy at max dose, in relation to reference dual agonist T0901317; read-out: LXR beta Activity @ max dose (%)
From the text: […]
experimental-endpoint: Emax (%)

| compound | unit-abbreviation | value-observed |
| --- | --- | --- |
| CN(C)C(=O)c1ccc(N2CCC(CC3CCN(C(=O)C4(c5ccccc5F)CCCC4)CC3)CC2)nc1Cl [Example 7-65] | % | 95 |
| COc1cccc([C@@](O)(C(=O)N2CCC(CC3CCN(c4ccc(C(=O)N(C)C)c(Cl)c4)CC3)CC2)C(F)F)c1 [Example 2-106] | % | 19 |
| CN(C)C(=O)c1ncc(N2CCC(CC3CCN(C(=O)[C@](O)(c4ccccc4)C(F)(F)F)CC3)CC2)cc1Cl [Example 2-4] | % | 80 |
| COc1cccc([C@@](O)(C(=O)N2CC(CC3CCN(c4ccc(C(=O)N(C)C)c(Cl)c4)CC3)C2)C(F)(F)F)c1 [Example 2-59] | % | 62 |
| Cc1cc(Cl)cc([C@@](O)(C(=O)N2CCC(CC3CCN(c4ccc(C(=O)N(C)C)c(Cl)c4)CC3)CC2)C(F)(F)F)c1 [Example 2-111] | % | 28 |
| CN(C)C(=O)c1ccc(N2CCC(OC3CCN(C(=O)C(O)(c4ccc(Cl)cc4)C(F)(F)F)CC3)CC2)cc1Cl (centres unmarked) [Example 2-23] | % | 51 |
| CC(C)(C(=O)N1CCC(CC2CCN(c3cccc(S(C)(=O)=O)c3)CC2)CC1)c1ccccc1 [Example 2-73] | % | 77 |
| CO[C@](C(=O)N1CCC(OC2CCN(c3ccc(C(=O)N(C)C)c(Cl)c3)CC2)CC1)(c1ccccc1)C(F)(F)F [Example 2-20] | % | 81 |
| CN(C)C(=O)c1ccc(N2CCC(CC3CCN(C(=O)C(O)(c4cccc5ccccc45)C(F)(F)F)CC3)CC2)cc1Cl (centres unmarked) [Example 2-168] | % | 21 |
| CNC(=O)c1ccc(N2CCC(CC3CCN(C(=O)[C@](O)(c4ccccc4)C(F)(F)F)CC3)CC2)cc1Cl [Example 7-25] | % | 77 |
| CN(C)C(=O)c1ccc(N2CCC(CC3CCN(C(=O)[C@@](N)(c4ccccc4)C(F)(F)F)CC3)CC2)nc1Cl [Example 7-110] | % | 54 |
| CNC(=O)c1ccc(N2CCC(CC3CCN(C(=O)[C@](O)(c4ccccc4)C(F)(F)C(F)(F)F)CC3)CC2)nc1Cl [Example 7-131] | % | 145 |
| CNC(=O)c1ccc(N2CCC(CC3CCN(C(=O)[C@](O)(c4cccc(Br)c4)C(F)(F)F)CC3)CC2)nc1Cl [Example 7-146] | % | 113 |
| CC(C)C(O)(C(=O)N1CCC(CC2CCN(c3ccc(C(=O)N(C)C)c(Cl)n3)CC2)CC1)C(F)(F)F (centres unmarked) [Example 7-59] | % | 107 |

----------
study-target: glutathione-S-transferase (GST) tagged LXRbeta LBD (ligand binding domain) (Homo sapiens)
Construct: purchased Invitrogen pv4658.pps
measurement-notes: LanthaScreen TR-FRET Liver X Receptor Coactivator Assay, co-activator recruitment to LXRbeta LBD
Assay type: biochemical
measurement-parameters: potency (Inflection Point, IP), co-activator recruitment to LXRbeta LBD, in relation to T0901317; read-out: LXR beta IP
Property: EC50; scope: individual compounds

| compound | EC50 [nM] |
| --- | --- |
| CN(C)C(=O)c1ccc(N2CCC(CC3CN(C(=O)[C@](O)(c4cccc(Cl)c4)C(F)(F)F)C3)CC2)nc1Cl | 11 |
| CNC(=O)c1ccc(N2CCC(CC3CCN(C(=O)[C@](O)(c4ccccc4F)C(F)(F)F)CC3)CC2)nc1Cl | 23 |
| CN(C)C(=O)c1ccc(N2CCC(CC3CCN(C(=O)C4(c5ccccc5)CCCC4)CC3)CC2)cc1Cl | 50 |
| Cc1cc(Cl)cc([C@@](O)(C(=O)N2CCC(CC3CCN(c4ccc(C(=O)N(C)C)c(Cl)c4)CC3)CC2)C(F)(F)F)c1 | 7 |
| CCOc1cccc([C@@](O)(C(=O)N2CC(CC3CCN(c4ccc(C(=O)NC)c(Cl)c4)CC3)C2)C(F)(F)F)c1 | 91 |
| CN(C)C(=O)c1ccc(N2CCC(CC3CCN(C(=O)[C@](O)(c4cc(F)cc(Cl)c4)C(F)(F)F)CC3)CC2)cc1Cl | 2 |
| O=C(c1ccc(N2CCC(CC3CCN(C(=O)[C@](O)(c4ccccc4)C(F)(F)F)CC3)CC2)cc1Cl)N1CCC(n2ccnc2)C1 (stereo partly shown) | 141 |

----------
study-target: glutathione-S-transferase (GST) tagged LXRbeta LBD (ligand binding domain) (Homo sapiens)
Construct: purchased Invitrogen pv4658.pps
measurement-notes: LanthaScreen TR-FRET Liver X Receptor Coactivator Assay, co-activator recruitment to LXRbeta LBD
Type: biochemical
measurement-parameters: potency (Inflection Point, IP), co-activator recruitment to LXRbeta LBD, in relation to T0901317; read-out: LXR beta IP
Hi all, reminder that labels come from EC50, split as low interval (below 10 nM), middle interval (10 nM to below 60 nM), high interval (60 nM or more)

| compound | group-label |
| --- | --- |
| O=C(NCCn1cncn1)c1ccc(N2CCC(CC3CCN(C(=O)[C@](O)(c4cc(Cl)cc(Cl)c4)C(F)(F)F)CC3)CC2)cc1Cl | high interval |
| Cc1cc(N2CCC(CC3(C)CCN(C(=O)[C@](O)(c4cccc(Cl)c4)C(F)(F)F)CC3)CC2)ccc1C(=O)N(C)C | middle interval |
| CN(C)C(=O)c1ccc(N2CCC(CC3CCN(C(=O)[C@](O)(c4cccc(Cl)c4)C(F)(F)F)CC3)CC2)cc1Cl | low interval |
| CN(C)C(=O)c1ccc(N2CCN(CC3CCN(C(=O)[C@](O)(c4ccccc4)C(F)(F)F)CC3)CC2)cc1Cl | high interval |
| CN(C)C(=O)c1ccc(N2CCC(CC3CN(C(=O)[C@](O)(c4cc(Cl)cc(Cl)c4)C(F)(F)F)C3)CC2)cc1Cl | middle interval |
| CN(C)C(=O)c1ccc(N2CCC(CC3CCN(C(=O)[C@](O)(c4ccccc4)C(F)(F)C(F)(F)F)CC3)CC2)cc1 | high interval |
| CN(C)C(=O)c1ccc(N2CCC(CC3CCN(C(=O)[C@](O)(c4cccc(Br)c4)C(F)(F)F)CC3)CC2)cc1 | middle interval |
| CN(C)C(=O)c1ccc(N2CCC(CC3CCN(C(=O)[C@](O)(c4cc(F)cc(Cl)c4)C(F)(F)F)CC3)CC2)nc1Cl | low interval |
| Cc1cc(N2CCC(CC3CCN(C(=O)[C@](O)(c4cccc(C(C)C)c4)C(F)(F)F)CC3)CC2)ccc1C(=O)N(C)C | middle interval |
| CN(C)C(=O)c1ccc(N2CCC(CC3CCN(C(=O)C(O)(c4cc(F)cc(Cl)c4)C(F)(F)F)CC3)CC2)nc1Cl (stereo not shown) | low interval |
| CN(C)C(=O)c1ccc(N2CCC(CC3(C)CCN(C(=O)[C@](O)(c4cccc(F)c4)C(F)(F)F)CC3)CC2)cc1Cl | low interval |
| CN(C)C(=O)c1ccc(N2CCC(CC3CCN(C(=O)[C@@](N)(c4ccccc4)C(F)(F)F)CC3)CC2)nc1Cl | high interval |

----------
Each record here notes measured Emax.
study-target: glutathione-S-transferase (GST) tagged LXRalpha LBD (ligand binding domain) (Homo sapiens)
Construct: purchased Invitrogen pv4655
Sequence (Q13133 209-447 limits assumed): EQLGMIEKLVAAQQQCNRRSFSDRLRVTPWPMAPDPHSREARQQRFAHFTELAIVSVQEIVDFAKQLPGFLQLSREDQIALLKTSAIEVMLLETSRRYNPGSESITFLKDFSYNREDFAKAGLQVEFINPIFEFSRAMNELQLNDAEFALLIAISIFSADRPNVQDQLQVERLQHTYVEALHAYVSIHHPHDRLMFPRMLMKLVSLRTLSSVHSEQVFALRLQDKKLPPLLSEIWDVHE
measurement-notes: LanthaScreen TR-FRET Liver X Receptor Coactivator Assay, co-activator recruitment to LXRalpha LBD
Type: biochemical
measurement-parameters: efficacy at max dose, in relation to reference dual agonist T0901317; read-out: LXR alpha Activity @ max dose (%)
experimental-endpoint: Emax

| compound | value-observed |
| --- | --- |
| CCc1cccc([C@@](O)(C(=O)N2CCC(C)(CC3CCN(c4ccc(C(=O)N(C)C)c(Cl)c4)CC3)CC2)C(F)(F)F)c1 | 0% |
| COc1cccc([C@@](O)(C(=O)N2CCC(OC3CCN(c4ccc(C(=O)N(C)C)c(Cl)c4)CC3)CC2)C(F)(F)F)c1 | 28% |
| CN(C)C(=O)c1ccc(N2[C@@H]3CC[C@H]2CN(CC2CCN(C(=O)[C@](O)(c4ccccc4)C(F)(F)F)CC2)C3)cc1Cl | 18% |
| COc1cccc([C@@](O)(C(=O)N2CCC(SC3CCN(c4ccc(C(=O)N(C)C)c(Cl)c4)CC3)CC2)C(F)(F)F)c1 | 8% |
| CCOc1cccc([C@@](O)(C(=O)N2CCC(CC3CN(c4ccc(C(=O)N(C)C)c(C5CC5)n4)C3)CC2)C(F)(F)F)c1 | 0% |
| CNC(=O)c1ccc(N2CCC(SC3CCN(C(=O)[C@](O)(c4cccc(OC)c4)C(F)(F)F)CC3)CC2)nc1Cl | 17% |
| COc1cc(Cl)cc([C@@](O)(C(=O)N2CCC(CC3CCN(c4ccc(C(=O)N(C)C)cc4)CC3)CC2)C(F)(F)F)c1 | 0% |
| CN(C)C(=O)c1ccc(N2CCC(OC3CCN(C(=O)[C@](O)(c4cc(Cl)cc(Cl)c4)C(F)(F)F)CC3)CC2)cc1Cl | 31% |
| CN(C)C(=O)c1ncc(N2CCC(CC3CCN(C(=O)C(O)(c4cccc(Cl)c4)C(F)(F)F)CC3)CC2)cc1Cl (stereo not shown) | 26% |
| COc1cc(F)cc([C@@](O)(C(=O)N2CCC(C)(CC3CCN(c4ccc(C(=O)N(C)C)c(Cl)c4)CC3)CC2)C(F)(F)F)c1 | 5% |
| COc1cc(C)cc([C@@](O)(C(=O)N2CCC(CC3CCN(c4ccc(C(=O)N(C)C)c(Cl)c4)CC3)CC2)C(F)(F)F)c1 | 4% |
| COc1cccc([C@@](O)(C(=O)N2CCC(CC3CCN(c4ccc(C(=O)N(C)C)c(Cl)n4)CC3)CC2)C(F)(F)F)c1 | 14% |
| CN(C)C(=O)c1ccc(N2CCC(CC3CCN(C(=O)c4c(F)cccc4F)CC3)CC2)cc1Cl | 0% |
